The values you see were collected from patent US20160244525A1.

Target: FGFR2-IIIb (human) (UniProt P21802)
Sequence (P21802 other isoform, or with tags, fused parts or gaps limits assumed): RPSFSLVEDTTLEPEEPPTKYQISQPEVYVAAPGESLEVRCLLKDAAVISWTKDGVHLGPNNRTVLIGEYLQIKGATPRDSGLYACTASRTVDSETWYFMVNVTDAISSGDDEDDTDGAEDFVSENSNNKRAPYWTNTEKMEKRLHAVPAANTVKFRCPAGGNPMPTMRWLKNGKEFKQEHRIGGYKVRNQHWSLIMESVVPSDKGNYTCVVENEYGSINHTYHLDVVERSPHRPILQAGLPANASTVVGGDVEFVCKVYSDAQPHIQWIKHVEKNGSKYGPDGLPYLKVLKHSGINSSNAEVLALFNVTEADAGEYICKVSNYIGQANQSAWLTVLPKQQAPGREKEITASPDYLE
Assay: SPR (Biacore T100), IgG captured by anti-human Fc, FGFR flowed
metric_name: log10 of Kd (log10 of the value in nM)
Plainly stated, the numbers are log10 of Kd given in nM.

(Q) Any idea what its log10 of Kd is? The binder is 2B.1.38 (antibody, human IgG1, kappa, V domains shown) VH: EVQLVESGGGLVQPGGSLRLSCAASGFTFTSTGISWVRQAPGKGLEWVGRFWAYDGSTNYADSVKGRFTISADTSKNTAYLQMNSLRAEDTAVYYCARTYGIYDLYVDYTEYVMDYWGQGTLVTVSS VL: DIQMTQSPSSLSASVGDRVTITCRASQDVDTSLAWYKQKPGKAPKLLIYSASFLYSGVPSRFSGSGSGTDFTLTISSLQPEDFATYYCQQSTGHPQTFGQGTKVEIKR
(A) 0.04

(Q) Any idea what its log10 of Kd is? The binder is 2B.1.33 (antibody, human IgG1, kappa, V domains shown) VH: EVQLVESGGGLVQPGGSLRLSCAASGFTFTSTGISWVRQAPGKGLEWVGRYHPFHGSTNYADSVKGRFTISADTSKNTAYLQMNSLRAEDTAVYYCARTYGIYDLYVDYTEYVMDYWGQGTLVTVSS VL: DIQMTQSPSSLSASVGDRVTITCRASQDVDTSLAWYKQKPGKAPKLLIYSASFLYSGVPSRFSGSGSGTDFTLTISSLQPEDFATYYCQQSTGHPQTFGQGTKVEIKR
(A) 1.18

(Q) Any idea what its log10 of Kd is? The binder is 2B.1.50 (antibody, human IgG1, kappa, V domains shown) VH: EVQLVESGGGLVQPGGSLRLSCAASGFTFTSTGISWVRQAPGKGLEWVGRLNFYSGSTNYADSVKGRFTISADTSKNTAYLQMNSLRAEDTAVYYCARTYGIYDLYVDYTEYVMDYWGQGTLVTVSS VL: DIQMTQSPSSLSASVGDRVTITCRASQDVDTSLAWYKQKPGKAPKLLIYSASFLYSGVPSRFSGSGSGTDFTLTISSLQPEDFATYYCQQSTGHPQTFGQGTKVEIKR
(A) 0.30

(Q) Any idea what its log10 of Kd is? The binder is 2B.1.78 (antibody, human IgG1, kappa, V domains shown) VH: EVQLVESGGGLVQPGGSLRLSCAASGFTFTSTGISWVRQAPGKGLEWVGRLSFYSGSTNYADSVKGRFTISADTSKNTAYLQMNSLRAEDTAVYYCARTYGIYDLYVDYTEYVMDYWGQGTLVTVSS VL: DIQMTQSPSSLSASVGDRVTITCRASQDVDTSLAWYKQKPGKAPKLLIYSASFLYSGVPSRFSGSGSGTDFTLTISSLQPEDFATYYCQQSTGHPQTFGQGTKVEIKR
(A) 0.51

(Q) Any idea what its log10 of Kd is? The binder is 2B.1.81 (antibody, human IgG1, kappa, V domains shown) VH: EVQLVESGGGLVQPGGSLRLSCAASGFTFTSTGISWVRQAPGKGLEWVGRVNNFYGSTNYADSVKGRFTISADTSKNTAYLQMNSLRAEDTAVYYCARTYGIYDLYVDYTEYVMDYWGQGTLVTVSS VL: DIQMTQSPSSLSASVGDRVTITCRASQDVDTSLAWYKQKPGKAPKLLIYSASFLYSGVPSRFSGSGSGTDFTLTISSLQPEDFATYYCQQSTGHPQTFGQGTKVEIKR
(A) 0.32

(Q) Any idea what its log10 of Kd is? The binder is 2B.1.3.12 (antibody, human IgG1, kappa, V domains shown) VH: EVQLVESGGGLVQPGGSLRLSCAASGFPFTSTGISWVRQAPGKGLEWVGRTHLGDGSTNYADSVKGRFTISADTSKNTAYLQMNSLRAEDTAVYYCARTYGIYDTYDMYTEYVMDYWGQGTLVTVSS VL: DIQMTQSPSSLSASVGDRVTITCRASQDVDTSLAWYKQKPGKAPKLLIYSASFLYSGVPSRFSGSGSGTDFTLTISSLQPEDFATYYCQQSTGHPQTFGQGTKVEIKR
(A) 0.48

(Q) Any idea what its log10 of Kd is? The binder is 2B.1.72 (antibody, human IgG1, kappa, V domains shown) VH: EVQLVESGGGLVQPGGSLRLSCAASGFTFTSTGISWVRQAPGKGLEWVGRVHPFEGSTNYADSVKGRFTISADTSKNTAYLQMNSLRAEDTAVYYCARTYGIYDLYVDYTEYVMDYWGQGTLVTVSS VL: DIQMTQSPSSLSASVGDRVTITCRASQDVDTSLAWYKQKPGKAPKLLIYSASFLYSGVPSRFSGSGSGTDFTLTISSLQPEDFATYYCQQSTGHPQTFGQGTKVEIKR
(A) 0.54

(Q) Any idea what its log10 of Kd is? The binder is 2B.1.28 (antibody, human IgG1, kappa, V domains shown) VH: EVQLVESGGGLVQPGGSLRLSCAASGFTFTSTGISWVRQAPGKGLEWVGRFWAWSGSTNYADSVKGRFTISADTSKNTAYLQMNSLRAEDTAVYYCARTYGIYDLYVDYTEYVMDYWGQGTLVTVSS VL: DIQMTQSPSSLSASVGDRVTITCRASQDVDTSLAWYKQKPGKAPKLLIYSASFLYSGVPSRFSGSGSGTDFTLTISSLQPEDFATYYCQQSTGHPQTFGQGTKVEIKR
(A) 0.26

(Q) Any idea what its log10 of Kd is? The binder is 2B.1.65 (antibody, human IgG1, kappa, V domains shown) VH: EVQLVESGGGLVQPGGSLRLSCAASGFTFTSTGISWVRQAPGKGLEWVGRYNAYTGSTNYADSVKGRFTISADTSKNTAYLQMNSLRAEDTAVYYCARTYGIYDLYVDYTEYVMDYWGQGTLVTVSS VL: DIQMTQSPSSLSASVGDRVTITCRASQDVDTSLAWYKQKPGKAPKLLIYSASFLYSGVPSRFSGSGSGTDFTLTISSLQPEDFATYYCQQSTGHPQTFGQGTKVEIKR
(A) 0.43

(Q) Any idea what its log10 of Kd is? The binder is 2B.1.80 (antibody, human IgG1, kappa, V domains shown) VH: EVQLVESGGGLVQPGGSLRLSCAASGFTFTSTGISWVRQAPGKGLEWVGRYWAFSGSTNYADSVKGRFTISADTSKNTAYLQMNSLRAEDTAVYYCARTYGIYDLYVDYTEYVMDYWGQGTLVTVSS VL: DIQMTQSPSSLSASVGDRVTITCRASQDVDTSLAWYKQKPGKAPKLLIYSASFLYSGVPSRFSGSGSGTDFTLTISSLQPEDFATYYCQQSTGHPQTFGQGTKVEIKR
(A) 1.23
